# System: Staphylococcus aureus
# measurement_description: Antibacterial activity against Staphylococcus aureus after 24 hrs by serial broth dilution test
# Format: functional
observed_property: MIC (µg/mL)

compound: CCc1c2c(OC)c(OC)cc(Br)c2cc2[n+]1CCc1cc3c(cc1-2)OCO3.[Cl-]
measurement_target: Staphylococcus aureus
measure_unit: µg/mL
MIC: 31.2

compound: NC[C@H]1O[C@H](O[C@H]2[C@H](O)[C@@H](O[C@H]3O[C@H](CO)[C@@H](O)[C@H](N)[C@H]3O)[C@H](N)C[C@@H]2N)[C@H](O)[C@@H](O)[C@@H]1O.O=S(=O)(O)O [KANAMYCIN SULFATE]
measurement_target: Staphylococcus aureus
measure_unit: µg/mL
MIC: 31.2

compound: COc1cc(Br)c2cc3[n+](cc2c1OC)CCc1cc2c(cc1-3)OCO2.[Cl-]
measurement_target: Staphylococcus aureus
measure_unit: µg/mL
MIC: 125

A. COc1ccc2cc3[n+](c(C)c2c1OC)CCc1cc2c(cc1-3)OCO2.[Cl-]
B. CCCc1c2c(OC)c(OC)ccc2cc2[n+]1CCc1cc3c(cc1-2)OCO3.[Cl-]
C. CCCCCCc1c2c(OC)c(OC)cc(Br)c2cc2[n+]1CCc1cc3c(cc1-2)OCO3.[Cl-]
(Q) Given 3 compounds, produce a descending ranking by MIC. Please list the labels according to the requested order.
(A) A, B, C
(A: 125 µg/mL, B: 31.2 µg/mL, C: 3.9 µg/mL)
